# target: cereblon (CRBN) (Homo sapiens, UniProt Q96SW2)
# assay: In vitro CRBN binding assay (AlphaScreen, competitive inhibition of the PROTAC assay)
# recorded conditions: Table 1; AlphaScreen, PROTAC Optimization Kit for BET Bromodomain-Cereblon Binding; read-out: Alpha IC50
property label: IC50 (nM)

Completed entries (count: 3):
- molecule: "Nc1cc(-c2ccccc2)n(C(=O)CCc2cccc(Nc3cccc(C4CCC(=O)NC4=O)c3)c2)n1 (centres unmarked) [AEV40201]"
  property label: "IC50"
  observed value: 1220
- molecule: "CCCOc1ccc(C(=O)Nc2cccc(S(=O)(=O)Nc3cccc(C4CCC(=O)NC4=O)c3)c2)cc1 (centres unmarked) [AEV40193]"
  property label: "IC50"
  observed value: 860
- molecule: "O=C1CCC(c2cccc(O)c2)C(=O)N1 (centres unmarked) [AEV40089]"
  property label: "IC50"
  observed value: 1140

[A] Cc1c(Cl)cccc1S(=O)(=O)Nc1cccc(C2CCC(=O)NC2=O)c1 (centres unmarked) [AEV40043]
[B] O=C1CCC(c2cccc(NCc3cccc(F)c3)c2)C(=O)N1 (centres unmarked) [AEV40107]
// compare: A vs B , metric IC50, want the smaller Respond with the label that goes with your answer. A

====

# target: UniProtKB Q96SW2
# assay: In vitro CRBN binding assay (AlphaScreen, competitive inhibition of the PROTAC assay)
# recorded conditions: Table 1; AlphaScreen, PROTAC Optimization Kit for BET Bromodomain-Cereblon Binding; read-out: Alpha IC50
property label: IC50 (µM)

- molecule: "O=C1CCC(c2cccc(NCc3ccc(Cl)cc3)c2)C(=O)N1 (stereo not drawn)"
  target: "UniProtKB Q96SW2"
  IC50, µM: 2.14

[1] O=C1CCC(c2ccc3c(c2)OCCN(c2cccc(NC(=O)c4ccc(Cl)cc4Cl)c2)C3=O)C(=O)N1 (stereo not drawn)
[2] O=C1CCC(c2cccc(NC(=O)c3cc4ccccc4[nH]3)c2)C(=O)N1 (stereo not drawn)
Which gives the smaller IC50 number: 1 or 2 ? Write down the label attached to your selection. 1

====

# Tested on: MDA-MB-231
# assay: Tumor cell viability, CCK-8 assay, MDA-MB-231
# Type: cell-based
# recorded conditions: MDA-MB-231 (human breast cancer); compound treatment 1uM; 2 days
property label: Cell viability (% of control)

- compound: "O=C1CCC(c2cccc(NS(=O)(=O)c3cccc(NC(=O)c4ccc(CCCCCl)cc4)c3)c2)C(=O)N1 (stereo not drawn)"
  Cell viability (% of control): "42.2 % of control"
- compound: "CCCCc1ccc(C(=O)Nc2cccc(S(=O)(=O)Nc3cccc(C4CCC(=O)NC4=O)c3)c2)cc1 (stereo not drawn)"
  Cell viability (% of control): "78.7 % of control"

Next:
Recall and state the measured Cell viability (% of control) for O=C1CCC(c2cccc(NS(=O)(=O)c3cccc(NC(=O)c4ccc(CCCCCCl)cc4)c3)c2)C(=O)N1 (stereo not drawn) . 28.2 % of control

====

# target: cereblon (CRBN) (Homo sapiens)
# assay: In vitro CRBN binding assay (AlphaScreen, competitive inhibition of the PROTAC assay)
# recorded conditions: Table 1; AlphaScreen, PROTAC Optimization Kit for BET Bromodomain-Cereblon Binding; read-out: Alpha IC50
pIC50: −log10 of the molar value.
property label: pIC50

[I] O=C1CCC(c2cccc(NS(=O)(=O)c3cccc(NCc4ccc5[nH]ccc5c4)c3)c2)C(=O)N1 (stereo not drawn)
[II] CC(C)C(=O)Nc1ccc(F)c(C2CCC(=O)NC2=O)c1 (stereo not drawn)
Task for the reader: decide whether I or II has the larger pIC50. Write down the label attached to your selection. I
(I: 5.89, II: 5.51)

[a] O=C1CCC(c2cccc(NC(=O)c3cc(Cl)ccc3Cl)c2)C(=O)N1 (stereo not drawn)
[b] O=C1CCC(c2ccc3c(c2)C(=O)NC3)C(=O)N1 (stereo not drawn)
In terms of reported pIC50, does a or b have the smaller number? To answer, give the label that identifies your chosen option. b
(b: 5.51, a: 6.04)

====

# Test system: MM.1S
# assay: Tumor cell viability, CCK-8 assay, MM.1S
# Format: cell-based
# recorded conditions: MM.1S (human multiple myeloma); compound treatment 1uM; 5 days
property label: Cell viability (% of control)

Solved cases below.
- molecule: "O=C1CCC(c2cccc(NS(=O)(=O)c3cccc(NC(=O)c4ccc(CCCCCl)cc4)c3)c2)C(=O)N1 (stereo not drawn)"
  observed value: "10.7 % of control"
- molecule: "O=C1CCC(c2cccc(NS(=O)(=O)c3cccc(NC(=O)c4ccc(Cl)cc4)c3)c2)C(=O)N1 (stereo not drawn)"
  observed value: "88.3 % of control"

Return the recorded Cell viability (% of control) value; entry: CCCCCCCc1ccc(C(=O)Nc2cccc(S(=O)(=O)Nc3cccc(C4CCC(=O)NC4=O)c3)c2)cc1 (stereo not drawn) 3.3 % of control

====

# target: cereblon (CRBN) (Homo sapiens)
# assay: In vitro CRBN binding assay (AlphaScreen, competitive inhibition of the PROTAC assay)
# recorded conditions: Table 1; AlphaScreen, PROTAC Optimization Kit for BET Bromodomain-Cereblon Binding; read-out: Alpha IC50
property label: IC50 (nM)

These solved cases illustrate the format of a correct answer.
- compound: "Cc1ccccc1C(=O)Nc1cccc(C2CCC(=O)NC2=O)c1 (stereo not shown) [AEV40146]"
  IC50 (nM): 1100
- compound: "O=C1CCC(c2cccc(NC(=O)c3ccc(Cl)cc3)c2)C(=O)N1 (stereo not shown) [AEV40139]"
  IC50 (nM): 2120
- compound: "O=C1CCC(c2cccc(NC(=O)c3cc(-c4ccccc4)ccc3Cl)c2)C(=O)N1 (stereo not shown) [AEV40222]"
  IC50 (nM): 1720
- compound: "CC1CCC(C(=O)Nc2cccc(N3CCOc4cc(C5CCC(=O)NC5=O)ccc4C3=O)c2)CC1 (stereo not shown) [AEV40213]"
  IC50 (nM): 2110
- compound: "O=C1CCC(c2cccc(NS(=O)(=O)c3cccc(NC(=O)c4ccc(Cl)cc4)c3)c2)C(=O)N1 (stereo not shown) [AEV41 001]"
  IC50 (nM): 1230
- compound: "CCCCCCCCc1ccc(C(=O)Nc2cccc(S(=O)(=O)Nc3cccc(C4CCC(=O)NC4=O)c3)c2)cc1 (stereo not shown) [AEV40264]"
  IC50 (nM): 320

[a] COC(=O)CCc1cccc(Nc2cccc(C3CCC(=O)NC3=O)c2)c1 (stereo not shown) [AEV40184]
[b] O=C1CCC(c2cccc(NC(=O)c3c[nH]c4ccccc34)c2)C(=O)N1 (stereo not shown) [AEV40194]
Between a and b , which one has the lower reported IC50 value? Please reply using the label of the selected record. b

====

# Test system: MM.1R-LR
# assay: Tumor cell viability, CCK-8 assay, MM.1R-LR
# Type: cell-based
# recorded conditions: MM.1R-LR (drug-resistant human multiple myeloma); compound treatment 1uM; 5 days
property label: Cell viability (% of control)

Below: 3 compounds and their reported Cell viability (% of control).
- compound: "O=C1CCC(c2cccc(NS(=O)(=O)c3cccc(NC(=O)c4ccc(CCCCCCCl)cc4)c3)c2)C(=O)N1 (stereo not shown)"
  observed value: "51.5 % of control"
- compound: "CCc1ccc(C(=O)Nc2cccc(S(=O)(=O)Nc3cccc(C4CCC(=O)NC4=O)c3)c2)cc1 (stereo not shown)"
  observed value: "66.1 % of control"
- compound: "O=C1CCC(c2cccc(NS(=O)(=O)c3cccc(NC(=O)c4ccc(CCCCCCl)cc4)c3)c2)C(=O)N1 (stereo not shown)"
  observed value: "56.9 % of control"

Consider now this further compound.
Return reported Cell viability (% of control). Input compound: CCCc1ccc(C(=O)Nc2cccc(S(=O)(=O)Nc3cccc(C4CCC(=O)NC4=O)c3)c2)cc1 (stereo not shown) 66.1 % of control

====

# target: cereblon (CRBN) (Homo sapiens, UniProt Q96SW2)
# assay: In vitro CRBN binding assay (AlphaScreen, competitive inhibition of the PROTAC assay)
# recorded conditions: Table 1; AlphaScreen, PROTAC Optimization Kit for BET Bromodomain-Cereblon Binding; read-out: Alpha IC50
pIC50: −log10 of the molar value.
property label: pIC50

Example cases with answers are listed next.
- molecule: "O=C1CCC(c2cccc(NC(=O)c3ccc(Cl)c(Cl)c3)c2)C(=O)N1 (stereo not shown) [AEV40137]"
  target: "cereblon (CRBN) (Homo sapiens, UniProt Q96SW2)"
  pIC50: 5.65
- molecule: "Cc1cc(Cl)ccc1C(=O)Nc1cccc(C2CCC(=O)NC2=O)c1 (stereo not shown) [AEV40147]"
  target: "cereblon (CRBN) (Homo sapiens, UniProt Q96SW2)"
  pIC50: 5.86

[1] O=C1CCC(c2cccc(NS(=O)(=O)c3cccc(NC(=O)c4c(F)cccc4C(F)(F)F)c3)c2)C(=O)N1 (stereo not shown) [AEV40149]
[2] CC(=O)Nc1ccc(F)c(C2CCC(=O)NC2=O)c1 (stereo not shown) [AEV40034]
Kindly identify the item with the lower pIC50 figure among these two: 1 and 2 Please respond with the label that marks your chosen entry. 2
